B1: Pistol ribozyme (parent)
chain: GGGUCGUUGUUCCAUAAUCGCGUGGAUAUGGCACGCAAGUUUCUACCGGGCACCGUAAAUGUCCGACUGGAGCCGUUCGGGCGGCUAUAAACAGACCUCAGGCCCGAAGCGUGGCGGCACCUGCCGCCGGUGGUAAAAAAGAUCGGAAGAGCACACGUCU

Variants of: B1
Test: aptazyme ON/OFF ratio, guanine; higher = stronger switching; co-transcriptional cleavage with and without guanine
measure: aptazyme ON/OFF ratio
Respond using a number only.

Kindly indicate its recorded aptazyme ON/OFF ratio. Item: U7A U8C G9A U11C C12G C13A
1.13

Kindly indicate its recorded aptazyme ON/OFF ratio. Item: U7G U8A G9U U10C U11A C12U C13G
1.09

Kindly indicate its recorded aptazyme ON/OFF ratio. Item: U7C U8C G9U U11A C12G C13G
1.16

Kindly indicate its recorded aptazyme ON/OFF ratio. Item: U7A U8G G9C U10C U11C C13A
0.995

Kindly indicate its recorded aptazyme ON/OFF ratio. Item: U7G U8C G9A U10A C13G
1.06

Kindly indicate its recorded aptazyme ON/OFF ratio. Item: U7G G9C
2.85

Kindly indicate its recorded aptazyme ON/OFF ratio. Item: U7G U8C G9U U10G U11G C12A C13U
1.34

Kindly indicate its recorded aptazyme ON/OFF ratio. Item: U7G U8C G9C U11A C12G C13G
1.16

Kindly indicate its recorded aptazyme ON/OFF ratio. Item: U7C U8A G9A U10G C12A C13U
1.25

Kindly indicate its recorded aptazyme ON/OFF ratio. Item: U8A G9C U11C C12A
1.08

Kindly indicate its recorded aptazyme ON/OFF ratio. Item: U7C U8C U10G U11A C12A
1.3

Kindly indicate its recorded aptazyme ON/OFF ratio. Item: U7A U8A G9C U10A U11A C12A C13G
1.07

Kindly indicate its recorded aptazyme ON/OFF ratio. Item: U7A U8A G9A U10A U11A C12U C13A
1.17

Values from the RNAGym collection of RNA variant scans (doi:10.1021/acssynbio.7b00057)
